# Lookup of reported IC50 keyed by entry
- TEST_SYSTEM: menin (Homo sapiens, UniProt O00255, T541A)
- Construct: Menin (a.a. 1-610-6×his tag)
- PROTOCOL: Menin/MLL homogenous time-resolved fluorescence (HTRF) assay
- Format: binding
- CONDITION_NOTES: location 2; read-out: (2) location 2 Menin HTRF assay (IC50 (nM))
- Method: 2) Menin/MLL Homogenous Time-Resolved Fluorescence (HTRF) Assay […] Compound potencies were determined by first calculating % inhibition at each compound concentration according to equation 1: % inhibition=((HC−LC)−(HTRF^compound−LC))/(HC−LC))*100 (Eqn 1) […]
I only need the number, in nM, no unit after it.

The following compounds have reported results that may help.
1. CNC(=O)c1ccc(NC2CCC3(C2)CN(c2ncnc4sc(CC(F)(F)F)cc24)C3)cc1 (single isomer, unassigned) [Compound 97] = 213
2. FC(F)(F)Cc1cc2c(N3CCC4(CCC(Nc5ccccc5)C4)C3)ncnc2s1 (single isomer, unassigned) [Compound 31] = 241
3. CN(C)CCN(C)C(=O)c1ccc(NC2CC3(CCN(c4ncnc5sc(CC(F)(F)F)cc45)C3)C2)cc1 (mixture of isomers) = 43.4

query: Jot down IC50 (menin (Homo sapiens, UniProt O00255, T541A)) of COc1nc(N2CCC3(CC(NCc4ccccc4)C3)C2)c2cc(CC(F)(F)F)sc2n1 (stereo not drawn) [Compound 59] .
result: 4.5

query: Jot down IC50 (menin (Homo sapiens, UniProt O00255, T541A)) of CNC(=O)c1ccc(NC2CC3(CCN(c4ncnc5sc(CC(F)(F)F)cc45)C3)C2)cc1CCCN(C)C (mixture of isomers) .
result: 80

query: Jot down IC50 (menin (Homo sapiens, UniProt O00255, T541A)) of FC(F)(F)Cc1cc2c(N3CCC4(CC(Nc5cccnc5)C4)C3)ncnc2s1 (single isomer, unassigned) [Compound 153] .
result: 34.7

###

- TEST_SYSTEM: menin (Homo sapiens, UniProt O00255, T541A)
- Construct: Menin (a.a. 1-610-6×his tag)
- Sequence (O00255 with tags, fused parts or gaps T541A): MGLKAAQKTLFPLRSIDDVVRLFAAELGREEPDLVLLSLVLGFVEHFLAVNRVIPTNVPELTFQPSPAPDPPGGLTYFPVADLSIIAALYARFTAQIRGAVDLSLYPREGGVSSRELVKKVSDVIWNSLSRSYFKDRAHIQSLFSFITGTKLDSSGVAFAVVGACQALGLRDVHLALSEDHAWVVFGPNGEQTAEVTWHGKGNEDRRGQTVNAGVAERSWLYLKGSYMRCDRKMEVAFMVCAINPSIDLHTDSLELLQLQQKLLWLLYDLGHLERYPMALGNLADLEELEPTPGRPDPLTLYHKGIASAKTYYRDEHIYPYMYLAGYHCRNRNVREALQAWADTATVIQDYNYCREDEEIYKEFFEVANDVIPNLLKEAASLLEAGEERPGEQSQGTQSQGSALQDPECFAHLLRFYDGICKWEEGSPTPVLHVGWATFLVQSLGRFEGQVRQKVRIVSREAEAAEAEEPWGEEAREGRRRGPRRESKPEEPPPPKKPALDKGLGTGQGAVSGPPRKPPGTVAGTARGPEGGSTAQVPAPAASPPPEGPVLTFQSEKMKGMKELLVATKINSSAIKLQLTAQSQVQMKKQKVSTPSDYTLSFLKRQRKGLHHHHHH
- PROTOCOL: Menin/MLL homogenous time-resolved fluorescence (HTRF) assay
- Assay type: binding
- CONDITION_NOTES: location 2; read-out: (2) location 2 Menin HTRF assay (IC50 (nM))
# Lookup of reported IC50 keyed by entry
I only need the number, in nM, no unit after it.

The following compounds have reported results that may help.
1) FC(F)(F)Cc1cc2c(N3CCC4(CC(Nc5ccc6cc[nH]c6c5)C4)C3)ncnc2s1 (mixture of isomers) [Compound 311] = 70.5
2) COC1CCN(C(=O)c2ccc(NC3CC4(CCN(c5ncnc6sc(CC(F)(F)F)cc56)C4)C3)cc2)CC1 (single isomer, unassigned) [Compound 184] = 3430
3) COc1nc(N2CC3(CC[C@H](NCc4cccc(-c5cc[nH]n5)c4)C3)C2)c2cc(CC(F)(F)F)sc2n1 (stereo in doubt) = 30.6
4) CS(=O)(=O)N1CCN(CC(O)c2ccc(NC3CC4(CCN(c5ncnc6sc(CC(F)(F)F)cc56)C4)C3)cc2)CC1 (stereo not drawn) = 43.7
5) CNC(=O)c1ccc(NC2CCC3(C2)CN(c2ncnc4sc(CC(F)(F)F)cc24)C3)cc1 (stereo not drawn) [Compound 96] = 43.4

Turning now to a further record.
query: Jot down IC50 (menin (Homo sapiens, UniProt O00255, T541A)) of CNC(=O)c1ccc(NC2CC3(CCN(c4ncnc5sc(CC(F)(F)F)cc45)C3)C2)cc1F (single isomer, unassigned) [Compound 204] .
result: 84.6

###

- TEST_SYSTEM: menin (Homo sapiens, UniProt O00255, T541A)
- Construct: Menin (a.a. 1-610-6×his tag)
- PROTOCOL: Menin/MLL homogenous time-resolved fluorescence (HTRF) assay
- Format: binding
- CONDITION_NOTES: location 2; read-out: (2) location 2 Menin HTRF assay (IC50 (nM))
OBSERVED_PROPERTY: log10 of IC50 (log10 of the value in nM)
Give log10 of IC50, with IC50 taken in nM.

The following compounds have reported results that may help.
1. O=C(c1ccc(NC2CC3(CCN(c4ncnc5sc(CC(F)(F)F)cc45)C3)C2)cc1)N1CCOCC1 (single isomer, unassigned) [Compound 334] = 2.41
2. O=c1[nH]c2ccc(N[C@@H]3CCC4(C3)CN(c3ncnc5sc(CC(F)(F)F)cc35)C4)cc2o1 (single isomer, unassigned) = 2.16
3. N#CCc1ccc(N[C@H]2CC[C@]3(CCN(c4ncnc5sc(CC(F)(F)F)cc45)C3)C2)cc1 (stereo in doubt) = 1.66
4. Nc1nc(N2CCC3(CC(Nc4ccc5[nH]c(=O)oc5c4)C3)C2)c2cc(CC(F)(F)F)sc2n1 (single isomer, unassigned) [Compound 385] = 1.43
5. CC(=O)Nc1ccc(NC2CC3(CCN(c4ncnc5sc(CC(F)(F)F)cc45)C3)C2)cc1 (single isomer, unassigned) [Compound 332] = 2.52

query: Please report the measured log10 of IC50 for CS(=O)(=O)N1CC(CC(C#N)c2ccc(NC3CC4(CCN(c5ncnc6sc(CC(F)(F)F)cc56)C4)C3)cc2)C1 (stereo not drawn)
result: 0.71

###

- TEST_SYSTEM: menin (Homo sapiens, UniProt O00255, T541A)
- Construct: Menin (a.a. 1-610-6×his tag)
- Sequence (O00255 with tags, fused parts or gaps T541A): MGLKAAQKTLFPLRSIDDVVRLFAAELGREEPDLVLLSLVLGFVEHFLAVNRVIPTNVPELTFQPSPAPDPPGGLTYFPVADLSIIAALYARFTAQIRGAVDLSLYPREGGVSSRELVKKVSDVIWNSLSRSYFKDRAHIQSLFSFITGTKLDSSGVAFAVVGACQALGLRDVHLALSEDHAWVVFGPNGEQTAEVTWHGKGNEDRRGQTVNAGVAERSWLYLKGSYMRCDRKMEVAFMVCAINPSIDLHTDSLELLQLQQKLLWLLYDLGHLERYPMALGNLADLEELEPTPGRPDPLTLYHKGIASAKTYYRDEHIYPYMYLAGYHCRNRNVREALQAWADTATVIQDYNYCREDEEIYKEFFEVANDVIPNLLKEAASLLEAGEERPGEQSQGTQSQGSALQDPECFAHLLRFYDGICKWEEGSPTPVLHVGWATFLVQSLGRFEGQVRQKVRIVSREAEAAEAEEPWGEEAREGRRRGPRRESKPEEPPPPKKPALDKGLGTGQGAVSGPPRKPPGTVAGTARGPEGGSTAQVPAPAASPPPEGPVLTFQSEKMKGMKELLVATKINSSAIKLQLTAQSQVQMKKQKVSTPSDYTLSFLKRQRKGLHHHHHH
- PROTOCOL: Menin/MLL homogenous time-resolved fluorescence (HTRF) assay
- Type: binding
- CONDITION_NOTES: location 2; read-out: (2) location 2 Menin HTRF assay (IC50 (nM))
# Lookup of reported log10 of IC50 keyed by entry
Give log10 of IC50, with IC50 taken in nM.

The following molecules have reported results that may help.
1. CS(=O)(=O)N1CCN(CCn2c(=O)oc3ccc(NC4CC5(CCN(c6ncnc7sc(CC(F)(F)F)cc67)C5)C4)cc32)CC1 (mixture of isomers) = 2.71
2. Nc1nc(N2CCC3(CC(NCc4ccccc4)C3)C2)c2cc(CC(F)(F)F)sc2n1 (mixture of isomers) = 1.67
3. Fc1cccc(NC2CC3(CCN(c4ncnc5sc(CC(F)(F)F)cc45)C3)C2)c1 (mixture of isomers) = 2.07
4. FC(F)(F)Cc1cc2c(N3CC4(CCC(Nc5cn[nH]c5)C4)C3)ncnc2s1 (racemic) = 2.98
5. CNc1nc(N2CC3(CC[C@H](NCc4cccc(-c5cc[nH]n5)c4)C3)C2)c2cc(CC(F)(F)F)sc2n1 (stereo in doubt) = 1.69

query: Please report the measured log10 of IC50 for CNC(=O)c1ccc(NC2CC3(CCN(c4ncnc5sc(CC(F)(F)F)cc45)C3)C2)cc1CCCN1CCN(S(C)(=O)=O)CC1 (mixture of isomers)
result: 2.23

query: Please report the measured log10 of IC50 for CS(=O)(=O)N1CCN(CCn2c(=O)[nH]c3ccc(NC4CC5(CCN(c6ncnc7sc(CC(F)(F)F)cc67)C5)C4)cc32)CC1 (mixture of isomers)
result: 3.60

query: Please report the measured log10 of IC50 for FC(F)(F)Cc1cc2c(N3CCC4(CCC(Nc5ccccc5)C4)C3)ncnc2s1 (single isomer, unassigned) [Compound 32]
result: 2.09

query: Please report the measured log10 of IC50 for CC(C)(N[C@H]1CCC2(C1)CN(c1ncnc3sc(CC(F)(F)F)cc13)C2)c1ccccc1 (single isomer, unassigned)
result: 1.80

query: Please report the measured log10 of IC50 for CNC(=O)c1ccc(NC2CC3(CCN(c4ncnc5sc(CC(F)(F)F)cc45)C3)C2)cc1C1CCN(C)CC1 (single isomer, unassigned) [Compound 231]
result: 2.32

query: Please report the measured log10 of IC50 for N#CC1(c2ccc(NC3CC4(CCN(c5ncnc6sc(CC(F)(F)F)cc56)C4)C3)cc2)CC1 (single isomer, unassigned) [Compound 172]
result: 0.92

query: Please report the measured log10 of IC50 for CC(C)(C#N)c1cccc(C(=O)NC2CCC3(C2)CN(c2ncnc4sc(CC(F)(F)F)cc24)C3)c1 (stereo not drawn)
result: 3.55
